- Target Or System: Caspase-3 (Homo sapiens, UniProt P42574)
- Construct: mixing the compounds with the respective active caspases; purchased BioVision K153-100
- Sequence (P42574 29-175 limits assumed): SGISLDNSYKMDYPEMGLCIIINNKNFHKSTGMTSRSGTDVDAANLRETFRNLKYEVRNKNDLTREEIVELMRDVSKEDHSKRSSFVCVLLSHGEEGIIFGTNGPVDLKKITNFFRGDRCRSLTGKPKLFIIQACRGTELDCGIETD
- Sequence (P42574 176-277 limits assumed): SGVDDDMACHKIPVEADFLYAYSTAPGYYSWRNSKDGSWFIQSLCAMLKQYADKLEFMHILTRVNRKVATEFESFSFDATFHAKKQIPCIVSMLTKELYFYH
- Assay Method Text: Caspase-3 inhibitor screening assay (BioVision kit, DEVD-AFC)
- Assay type: biochemical
- Assay Context: read-out: % Inhibition at 10 uM Casp3
Structures can show the parent of a compound that is named as a salt.
Reported Metric: inhibition at 10 µM (%)
Respond numerically; units are % and should not be typed.

Would you please look over these solved cases?
CC(C)[C@H](NC(=O)[C@@H](N)Cc1ccc(O)cc1)C(=O)N[C@@H](C)C(=O)N[C@H](/C=C/S(C)(=O)=O)CC(=O)O: 0
CC(C)[C@H](NC(=O)OCc1ccccc1)C(=O)N[C@H](/C=C/S(C)(=O)=O)CC(=O)O: 0
CS(=O)(=O)/C(Cl)=C/[C@@H](N)CC(=O)O: 4
CCOC(=O)/C=C/[C@@H](N)CC(=O)O [Compound 44, Asp ethyl vinyl ester tosyl salt]: 0
CC(C)(C)[C@H](NC(=O)c1ccc2ncccc2c1)C(=O)N1CCCC1C(=O)N[C@H](/C=C/S(C)(=O)=O)CC(=O)O (stereo in doubt): 12

Attention now shifts to the item below.
Query string: Fill blank: measured inhibition at 10 µM of the molecule CC(C)(C)[C@H](NC(=O)c1ccc(N)c(Cl)c1)C(=O)N1CCCC1C(=O)N[C@H](/C=C/S(C)(=O)=O)CC(=O)O (stereo in doubt) is ____.
Result string: 7
